Molecular target: cAMP and cAMP-inhibited cGMP 3',5'-cyclic phosphodiesterase 10A (Rattus norvegicus, UniProt Q9QYJ6)
Sequence (Q9QYJ6 whole entry): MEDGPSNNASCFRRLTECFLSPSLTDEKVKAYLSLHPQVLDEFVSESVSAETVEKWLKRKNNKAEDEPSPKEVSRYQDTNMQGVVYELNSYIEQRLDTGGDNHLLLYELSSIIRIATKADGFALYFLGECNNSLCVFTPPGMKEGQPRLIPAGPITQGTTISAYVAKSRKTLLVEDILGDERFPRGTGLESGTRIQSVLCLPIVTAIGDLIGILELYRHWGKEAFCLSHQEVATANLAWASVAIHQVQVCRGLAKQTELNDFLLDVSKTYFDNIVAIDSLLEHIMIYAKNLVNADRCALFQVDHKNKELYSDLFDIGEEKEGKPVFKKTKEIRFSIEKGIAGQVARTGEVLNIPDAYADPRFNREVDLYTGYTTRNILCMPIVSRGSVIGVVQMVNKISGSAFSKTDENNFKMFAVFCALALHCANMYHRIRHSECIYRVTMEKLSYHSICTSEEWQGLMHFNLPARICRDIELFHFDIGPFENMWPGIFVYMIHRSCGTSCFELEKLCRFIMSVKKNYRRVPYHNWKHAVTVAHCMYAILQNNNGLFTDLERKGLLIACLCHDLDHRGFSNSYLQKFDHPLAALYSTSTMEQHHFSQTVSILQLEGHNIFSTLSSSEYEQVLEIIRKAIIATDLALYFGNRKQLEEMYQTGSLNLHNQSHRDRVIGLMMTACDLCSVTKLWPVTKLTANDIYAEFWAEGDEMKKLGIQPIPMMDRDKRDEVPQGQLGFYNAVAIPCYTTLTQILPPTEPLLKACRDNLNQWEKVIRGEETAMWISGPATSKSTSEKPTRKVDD
Some compounds, each annotated with its measured pIC50.
# pIC50 = -log10(concentration in molar units)

Past entries and their recorded results:
Cc1ncccc1-c1nccnc1OC1CN(c2ccc3ccccc3n2)C1 = 6.87
OCC1CCCCN1c1ncc(Br)c(OC2CN(c3ccc4ccccc4n3)C2)n1 (configuration not stated) = 6.59

# next compound below
Prompt line: Which pIC50 value is on record for `CC(=O)N1CC=C(c2cccnc2OC2CN(c3nc4ccccc4s3)C2)CC1` ?
Response line: 6.46
